Assay: 2-week dog toxicity and toxicokinetic study
Format: in vivo
Settings: female, beagle, in vivo, po, 10 mg/kg/day, females, 10 mg/kg/day, Day 0
EXPERIMENTAL READOUT: Cmax
Be sure to follow the number with its unit.

Form field: reported Cmax of Clc1ccc([C@]23CNC[C@H]2C3)cc1Cl
3450 ng/mL

----------
Experiment: 2-week dog toxicity and toxicokinetic study
Assay type: in vivo
Settings: male, beagle, in vivo, po, 20 mg/kg/day, males, 20 mg/kg/day, Day 0, read-out: AUC0-24
EXPERIMENTAL READOUT: AUC(0-t) (ng·h/mL)
Numbers only, in ng·h/mL.

Form field: reported AUC(0-t) of Clc1ccc([C@]23CNC[C@H]2C3)cc1Cl [amitifadine]
41700

----------
Test: in vivo
Conditions: male, Crl:CD-1(ICR) BR, mouse, po, 30 mg/kg/day, Cmax
EXPERIMENTAL READOUT: Cmax (ng/mL)
Give bare numbers, in ng/mL.

Form field: reported Cmax of Clc1ccc([C@]23CNC[C@H]2C3)cc1Cl
1060

----------
Experiment: 2-week rat toxicology and toxicokinetic study
Assay type: in vivo
Details: female, Crl:CD (SD)IGS BR, rat, in vivo, po, 10 mg/kg/day, females, 10 mg/kg/day, Day 13
EXPERIMENTAL READOUT: Tmax (h)
Numbers only, in h.

Form field: reported Tmax of Clc1ccc([C@]23CNC[C@H]2C3)cc1Cl [amitifadine]
2

----------
Test: Rat developmental toxicity study with toxicokinetics
Assay type: in vivo
Details: female, Crl:CD(SD)IGS BR, rat, in vivo, po; pregnant rats, 20 mg/kg/day, GD 6
EXPERIMENTAL READOUT: Tmax (h)
Answers are plain numbers, in h.

Form field: reported Tmax of Clc1ccc([C@]23CNC[C@H]2C3)cc1Cl
2

----------
Assay: Single dose 300 mg / 450 mg pharmacokinetic, safety and tolerability study in healthy male and female subjects
Conditions: female, human, plasma, po, 300 mg
EXPERIMENTAL READOUT: concentration at 18 h (ng/mL)
Give bare numbers, in ng/mL.

Form field: reported concentration at 18 h of O=C1NCC2(c3ccc(Cl)c(Cl)c3)CC12 (stereo not shown)
1690

----------
Test: Single rising oral dose (10-150 mg IR) safety, tolerance and pharmacokinetics in healthy male volunteers
Assay type: in vivo, human
Conditions: male, human, plasma, oral, 10 mg, Geometric Mean; read-out: t1/2 (converted)
EXPERIMENTAL READOUT: half-life (h)
Give bare numbers, in h.

Form field: reported half-life of Clc1ccc([C@]23CNC[C@H]2C3)cc1Cl [amitifadine]
3.4

----------
Experiment: Single dose 300 mg / 450 mg pharmacokinetic, safety and tolerability study in healthy male and female subjects
Conditions: male, human, plasma, po, 450 mg
EXPERIMENTAL READOUT: concentration at 2 h (ng/mL)
Numbers only, in ng/mL.

Form field: reported concentration at 2 h of O=C1NCC2(c3ccc(Cl)c(Cl)c3)CC12 (stereo not shown)
1620

----------
Assay: in vivo
Details: male, Crl:CD-1(ICR) BR, mouse, po, 100 mg/kg/day, Cmax
EXPERIMENTAL READOUT: Cmax (ng/mL)
Numbers only, in ng/mL.

Form field: reported Cmax of Clc1ccc([C@]23CNC[C@H]2C3)cc1Cl
3900

----------
Assay: Single dose 300 mg / 450 mg pharmacokinetic, safety and tolerability study in healthy male and female subjects
Conditions: both, human, plasma, po, 450 mg
EXPERIMENTAL READOUT: concentration at 4 h
Be sure to follow the number with its unit.

Form field: reported concentration at 4 h of O=C1NCC2(c3ccc(Cl)c(Cl)c3)CC12 (stereo not shown)
2160 ng/mL

----------
Assay: 26-week rat toxicity and toxicokinetic study
Type: in vivo
Settings: male, Crl:CD(SD)IGS BR, rat, plasma, po, 8 mg/kg/day, males, EB-1010 8 mg/kg/day, Day 177; read-out: AUC0-24 of metabolite
EXPERIMENTAL READOUT: AUC(0-t) (ng·h/mL)
One number for each entry, in ng·h/mL.

Form field: reported AUC(0-t) of O=C1NCC2(c3ccc(Cl)c(Cl)c3)CC12 (stereo not shown)
80400

----------
Experiment: 2-week dog toxicity and toxicokinetic study
Type: in vivo
Conditions: male, beagle, in vivo, po, 20 mg/kg/day, males, 20 mg/kg/day, Day 13, read-out: AUC0-24
EXPERIMENTAL READOUT: AUC(0-t) (ng·h/mL)
Numbers only, in ng·h/mL.

Form field: reported AUC(0-t) of Clc1ccc([C@]23CNC[C@H]2C3)cc1Cl
32800

----------
Test: 13-week mouse toxicity and toxicokinetic study
Conditions: male, Crl:CD-1(ICR) BR, in vivo, po, 30 mg/kg/day, AUC0-24
EXPERIMENTAL READOUT: AUC(0-t)
Be sure to follow the number with its unit.

Form field: reported AUC(0-t) of Clc1ccc([C@]23CNC[C@H]2C3)cc1Cl [amitifadine]
7290 ng·h/mL

----------
Assay: Single dose 300 mg / 450 mg pharmacokinetic, safety and tolerability study in healthy male and female subjects
Conditions: both, human, plasma, po, 300 mg
EXPERIMENTAL READOUT: concentration at 24 h (ng/mL)
Answers are plain numbers, in ng/mL.

Form field: reported concentration at 24 h of O=C1NCC2(c3ccc(Cl)c(Cl)c3)CC12 (stereo not shown) [EB-10101]
1010

----------
Experiment: Single rising oral dose (10-150 mg IR) safety, tolerance and pharmacokinetics in healthy male volunteers
Type: in vivo, human
Details: male, human, plasma, oral, 150 mg, Median; read-out: MRT0-∞
EXPERIMENTAL READOUT: MRT inf

Form field: reported MRT inf of Clc1ccc([C@]23CNC[C@H]2C3)cc1Cl
5.87 h

----------
Test: Single dose 300 mg / 450 mg pharmacokinetic, safety and tolerability study in healthy male and female subjects
Details: female, human, plasma, po, 450 mg
EXPERIMENTAL READOUT: concentration at 4 h (ng/mL)
One number for each entry, in ng/mL.

Form field: reported concentration at 4 h of O=C1NCC2(c3ccc(Cl)c(Cl)c3)CC12 (stereo not shown)
2180

----------
Experiment: 12-month dog toxicity and toxicokinetic study
Assay type: in vivo
Conditions: female, beagle, dog, plasma, po, 20 mg/kg/day, females, 20 (15) mg/kg/day, Day 0; read-out: AUC0-24
Procedure: Blood samples were collected on Days 0, 91, 181, 268 and 358 from up to 4 animals/gender/group. Plasma samples collected on Days 91, 181, 268, as well as all plasma samples collected from the control group were not evaluated. For toxicology assessment four dogs of each gender were included in each group. Assessments included clinical observations, body weight, and food consumption measures which were recorded periodically during the study. […]
EXPERIMENTAL READOUT: AUC(0-t) (ng·h/mL)
Answers are plain numbers, in ng·h/mL.

Form field: reported AUC(0-t) of Clc1ccc([C@]23CNC[C@H]2C3)cc1Cl
24100

----------
Test: Single rising oral dose (10-150 mg IR) safety, tolerance and pharmacokinetics in healthy male volunteers
Format: in vivo, human
Settings: male, human, plasma, oral, 50 mg, Geometric Mean
EXPERIMENTAL READOUT: AUC(0-inf)
Be sure to follow the number with its unit.

Form field: reported AUC(0-inf) of Clc1ccc([C@]23CNC[C@H]2C3)cc1Cl
2420 ng·h/mL

----------
Test: 13-week mouse toxicity and toxicokinetic study
Settings: male, Crl:CD-1(ICR) BR, in vivo, po, 10 mg/kg/day, Tmax
EXPERIMENTAL READOUT: Tmax (h)
Give bare numbers, in h.

Form field: reported Tmax of Clc1ccc([C@]23CNC[C@H]2C3)cc1Cl [amitifadine]
1

----------
Test: Rabbit developmental toxicity study with toxicokinetics
Details: female, New Zealand white, in vivo, po, pregnant rabbits, 10 mg/kg/day, GD 20
EXPERIMENTAL READOUT: Tmax (h)
Give bare numbers, in h.

Form field: reported Tmax of Clc1ccc([C@]23CNC[C@H]2C3)cc1Cl [amitifadine]
1

----------
Test: in vivo
Conditions: female, Crl:CD-1(ICR) BR, mouse, po, 10 mg/kg/day, Cmax
EXPERIMENTAL READOUT: Cmax (ng/mL)
Numbers only, in ng/mL.

Form field: reported Cmax of Clc1ccc([C@]23CNC[C@H]2C3)cc1Cl [amitifadine]
323

----------
Test: Single rising oral dose (10-150 mg IR) safety, tolerance and pharmacokinetics in healthy male volunteers
Format: in vivo, human
Conditions: male, human, plasma, oral, 50 mg, Mean (n = 7); read-out: t1/2 (converted)
EXPERIMENTAL READOUT: half-life
Be sure to follow the number with its unit.

Form field: reported half-life of Clc1ccc([C@]23CNC[C@H]2C3)cc1Cl
3.68 h

Cited source: patent US20160346249A1
